target: Solute carrier organic anion transporter family member 1B3 (Homo sapiens)
Sequence (Q9NPD5 whole entry): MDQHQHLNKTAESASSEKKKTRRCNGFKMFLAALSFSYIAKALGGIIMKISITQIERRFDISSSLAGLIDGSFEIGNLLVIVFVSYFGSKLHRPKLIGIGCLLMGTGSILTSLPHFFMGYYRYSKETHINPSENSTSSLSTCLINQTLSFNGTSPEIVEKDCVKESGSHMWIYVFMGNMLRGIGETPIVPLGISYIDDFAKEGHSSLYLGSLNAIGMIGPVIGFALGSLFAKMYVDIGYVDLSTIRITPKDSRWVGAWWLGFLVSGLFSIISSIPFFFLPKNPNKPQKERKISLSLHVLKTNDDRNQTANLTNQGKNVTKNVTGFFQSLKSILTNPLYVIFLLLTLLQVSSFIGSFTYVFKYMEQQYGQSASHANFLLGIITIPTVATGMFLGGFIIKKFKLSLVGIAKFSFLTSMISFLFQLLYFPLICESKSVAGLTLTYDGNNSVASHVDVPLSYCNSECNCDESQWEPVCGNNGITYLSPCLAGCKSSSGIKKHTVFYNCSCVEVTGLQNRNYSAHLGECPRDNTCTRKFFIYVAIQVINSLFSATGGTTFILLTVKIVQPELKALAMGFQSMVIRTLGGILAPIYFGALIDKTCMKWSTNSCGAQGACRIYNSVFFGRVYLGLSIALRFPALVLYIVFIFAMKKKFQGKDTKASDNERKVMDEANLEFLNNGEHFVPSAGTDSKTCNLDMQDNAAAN
Quantity Name: pKi
Please treat pKi as minus the base-10 logarithm of the molar concentration.

1) C=C1[C@@H]([C@@]2(C)[C@@H](OC(C)=O)CC(=O)O[C@](C)(COC(C)=O)[C@@H]2C(=O)OC)[C@@H](OC=O)[C@H](OC(=O)[C@H](O)[C@H](C)CC)[C@@]2(C)[C@H](c3ccoc3)CC(=O)[C@]12O ... 5.58

Sample O=C(O)c1cc2ccccc2c(Cc2c(O)c(C(=O)O)cc3ccccc23)c1O.OCCOCCN1CCN(C(c2ccccc2)c2ccc(Cl)cc2)CC1 [HYDROXYZINE PAMOATE] — what was its pKi? 6.03

Quick one: CC[C@H]1/C=C/C=C/C[C@@H](C)[C@H](O)[C@@](C)(O)C(=O)[C@@H](C)[C@H](O)[C@@H](C)C(=O)[C@@H](C)[C@H](O)[C@@H](C)/C=C/C(=O)O[C@@H]2[C@H](C)[C@H](CC1)O[C@]1(CC[C@H](C)[C@H](C[C@@H](C)O)O1)[C@H]2C 6.36

Quick one: C=C1[C@@H]2CC[C@@]3(C)[C@H](c4ccoc4)OC(=O)C[C@]13O[C@H]1CC(=O)C(C)(C)[C@H](C(OC(C)=O)C(=O)OC)[C@]12C (some centres undefined) [METHYL 6-ACETOXYANGOLENSATE] 5.53
